System: U2OS
Test: Multiplex assay against U2OS
Assay type: toxicity, cell-based
Details: human, 12 h, 10 µM, compound concentration 10 uM, replicate 2
Output criterion met for Population Healthy Nuclei (%) not less than 80%; output criterion not met otherwise.

1. CC(/C=C1\SC(=S)N(CCCC(=O)Nc2ccc(C(=O)O)c(O)c2)C1=O)=C\c1ccccc1 | criterion not met
2. Cl.NC[C@@H]1O[C@H](C23CC4CC(CC(C4)C2)C3)Cc2c1ccc(O)c2O | criterion not met
3. CC(C)c1cc(Nc2nc(N3CCC[C@H](N)C3)ncc2C(N)=O)cc(C(C)C)n1 | criterion not met
4. c1ccc(-c2oc3ncnc(NC[C@@H]4CCCO4)c3c2-c2ccccc2)cc1 | criterion not met
5. Oc1cccc(-c2nc(N3CCOCC3)c3oc4ncccc4c3n2)c1 | criterion not met
6. CCOc1ccn(-c2ccc(F)cc2)c(=O)c1C(=O)Nc1ccc(Oc2ccnc(N)c2Cl)c(F)c1 | criterion met
7. CCCCN(CC)c1nc(C)nc2c1c(C)cn2-c1c(C)cc(C)cc1C.Cl | criterion met
8. CC(Cc1ccc(O)c(O)c1)C(C)Cc1ccc(O)c(O)c1 (stereo not drawn) [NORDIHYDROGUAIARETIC ACID] | criterion met

Please indicate if the recorded Population Healthy Nuclei (%) for CC[C@H](Nc1ncnc2[nH]cnc12)c1nc2cccc(F)c2c(=O)n1-c1ccccc1 meets or exceeds 80%. criterion met

Could you do the same for NC(=O)c1ccc2nc(-c3ccc(C4(N)CCC4)cc3)c(-c3ccccc3)n2n1 , please? criterion met

Repeat for the following molecule: Cl.Cn1c2c(c3ccc(Cl)c(Cl)c31)C(C#N)C1(CCNCC1)NC2=O (stereo not drawn) criterion not met

Also CCCc1cc(C)[nH]c(=O)c1CNC(=O)c1cc(-c2ccc(N3CCN(C(C)C)CC3)nc2)cc2c1cnn2C(C)C ? criterion not met

Another: C[C@@H](Oc1cc(-n2cnc3ccc(CN4CCN(C)CC4)cc32)sc1C(N)=O)c1ccccc1C(F)(F)F criterion not met

Another molecule: CN(c1cc(C(F)(F)F)nc(OCCC(=O)O)n1)c1cccc2c1CCC2 criterion met

Also check N#Cc1cccc(C(=O)Nc2cc(-c3ccccc3)nn2-c2ccccc2)c1 criterion not met

Another molecule: CCCCCNC(=N)N/N=C/c1c[nH]c2ccc(OC)cc12.O=C(O)/C=C\C(=O)O [TEGASEROD MALEATE] criterion not met

----------
Test system: HEK-293T
Assay: Multiplex assay against HEK293T
Format: toxicity, cell-based
Details: human, 12 h, 10 µM, compound concentration 10 uM, replicate 1
Exercise: state measured Population Fragmented Nuclei (%) for each of the compounds provided.
Please state the number and follow it with the unit.

1) CC(Cc1ccc(O)c(O)c1)C(C)Cc1ccc(O)c(O)c1 (centres undefined) [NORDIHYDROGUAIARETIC ACID] | 12%
2) C[C@@H](Oc1cc(-n2cnc3ccc(CN4CCN(C)CC4)cc32)sc1C(N)=O)c1ccccc1C(F)(F)F [GSK-461364] | 16%
3) CC(/C=C1\SC(=S)N(CCCC(=O)Nc2ccc(C(=O)O)c(O)c2)C1=O)=C\c1ccccc1 | 10%

Kindly review the next compound as well.
What value of Population Fragmented Nuclei (%) has been recorded for this entry: C=CC(=O)Nc1cc(-n2c(=O)ccc3cnc4ccc(-c5ccc(NS(C)(=O)=O)cc5)cc4c32)ccc1C 20%
